I'd appreciate it if you could supply Fu values for the items below.
Test system: Plasma
Assay: Fraction unbound (%) in human plasma at 10 uM by LC/MS-MS analysis
Format: ADME, cell-free
Settings: 10 µM
Give bare numbers, in %.

Fill in the recorded Fu for this molecule, with Plasma as test system: Cc1noc(C)c1S(=O)(=O)Nc1c(N2CCC(N(C)Cc3ccc(Cl)cc3)CC2)c(=O)c1=O
3.8

Here is another molecule to look at.
I'm curious: which Fu was measured for CO[C@H]1/C=C/O[C@@]2(C)Oc3c(C)c(O)c4c(O)c(c(/C=N/N5CCN(C)CC5)c(O)c4c3C2=O)NC(=O)/C(C)=C\C=C\[C@H](C)[C@H](O)[C@@H](C)[C@@H](O)[C@@H](C)[C@H](OC(C)=O)[C@@H]1C tested on Plasma?
16.5
